The measured values listed here are drawn from patent US10364226B2.

UniProt P15659: recorded pIC50 for assorted molecules
pIC50: −log10 of the molar value.

| MOLECULE | pIC50 |
| --- | --- |
| CNC(=O)c1nn(CC2(n3c4c(c5ccccc53)CCC4)CCCC2)cc(O)c1=O | > 7.00 |
| CNC(=O)c1nn(CC2(n3cc(C)c4cc(Cl)cnc43)CCCC2)cc(O)c1=O | > 7.00 |
| CNC(=O)c1nn(CC2(c3ccc4ccccc4c3)CCCC2)cc(O)c1=O | > 7.00 |
| O=C(O)c1nn(CCc2cccc(C(F)(F)F)c2)cc(O)c1=O | > 7.00 |
| Cc1cn(C2(Cn3cc(O)c(=O)c(C(=O)NCC(C)(C)CN)n3)CCCC2)c2ncccc12 | > 7.00 |
| CCNC(=O)c1nn(CC2(c3ccc4ccccc4c3)CCCC2)cc(O)c1=O | > 7.00 |
| O=C1NCCCCCOc2ccc(cc2)C2(CCCC2)Cn2cc(O)c(=O)c1n2 | 6.00 to 7.00 |
| Cc1cn(C2(Cn3cc(O)c(=O)c(C(=O)NCC(C)(C)CNC(=O)OC(C)(C)C)n3)CCCC2)c2ncccc12 | 6.00 to 7.00 |
| Cc1cn(C2(Cn3cc(O)c(=O)c(C(=O)NCCN)n3)CCCC2)c2ncccc12 | > 7.00 |
| CNC(=O)c1nn(CC2(c3cccc4ccccc34)CCCC2)cc(O)c1=O | > 7.00 |
| CC(C)(C)NC(=O)c1nn(CC2(n3ccc4cc(F)ccc43)CCCC2)cc(O)c1=O | > 7.00 |
| CNC(=O)c1nn(CCN2c3ccccc3C=Cc3ccccc32)cc(O)c1=O | > 7.00 |
| C[C@@H](NC(=O)c1nn(CC2(n3cc(Cl)c4cccnc43)CCCC2)cc(O)c1=O)C(F)(F)F | 6.00 to 7.00 |
| O=C(O)c1nn(-c2ccc(F)cc2)cc(O)c1=O | 6.00 to 7.00 |
| CNC(=O)c1nn(CC2(c3ccc(C(C)C)cc3)CCCC2)cc(O)c1=O | > 7.00 |
| Cc1cc(CNC(=O)c2nn(CC3(c4cccc(C(F)(F)F)c4)CCCC3)cc(O)c2=O)[nH]n1 | > 7.00 |
| CCOC(=O)c1nn(CC2(c3ccccc3)CCCC2)cc(O)c1=O | 6.00 to 7.00 |
| CC1(C)CCC(Cn2cc(O)c(=O)c(C(=O)NCc3ccccc3)n2)(c2ccccc2)C1 (stereo not shown) | 6.00 to 7.00 |
| CNC(=O)c1nn(CC2(c3cccc(Br)c3)CCCC2)cc(O)c1=O | > 7.00 |

* * *

target: EN PA (Influenza A virus, UniProt P15659)

| COMPOUND | ASSAYED_TARGET | IC50 |
| --- | --- | --- |
| CNC(=O)c1nn(CC2(c3ccc4c(C)cccc4c3)CCCC2)cc(O)c1=O | EN PA (Influenza A virus, UniProt P15659) | < 100 nM |
| CNC(=O)c1nn(CC2(n3cc(C)c4cccnc43)CCCC2)cc(O)c1=O | EN PA (Influenza A virus, UniProt P15659) | 100 to 1000 nM |
| C[C@H](NC(=O)c1nn(CC2(n3cc(Cl)c4cccnc43)CCCC2)cc(O)c1=O)C(F)(F)F | EN PA (Influenza A virus, UniProt P15659) | 100 to 1000 nM |
| CNC(=O)c1nn(CC2(c3ccc(-c4ccccc4)cc3)CCCC2)cc(O)c1=O | EN PA (Influenza A virus, UniProt P15659) | 100 to 1000 nM |
| CNC(=O)c1nn(CC2(c3cccc4nn(C)cc34)CCCC2)cc(O)c1=O | EN PA (Influenza A virus, UniProt P15659) | < 100 nM |
| CNC(=O)c1nn(-c2ccccc2-c2ccccc2-c2ccccc2)cc(O)c1=O | EN PA (Influenza A virus, UniProt P15659) | 100 to 1000 nM |
| CS(=O)(=O)c1ccc(-n2cc(O)c(=O)c(C(=O)O)n2)cc1 | EN PA (Influenza A virus, UniProt P15659) | 100 to 1000 nM |
| O=C(O)c1nn(C2CCc3ccccc3C2=O)cc(O)c1=O (centres unmarked) | EN PA (Influenza A virus, UniProt P15659) | 100 to 1000 nM |
| Cc1ccc2cccc(-n3cc(O)c(=O)c(C(=O)O)n3)c2n1 | EN PA (Influenza A virus, UniProt P15659) | 100 to 1000 nM |
| CNC(=O)c1nn(CC2(n3ccc4cc(OC)cnc43)CCCC2)cc(O)c1=O | EN PA (Influenza A virus, UniProt P15659) | < 100 nM |
| O=C(O)c1nn(-c2cc(C(F)(F)F)cc(C(F)(F)F)c2)cc(O)c1=O | EN PA (Influenza A virus, UniProt P15659) | 100 to 1000 nM |

* * *

EN PA (Influenza A virus, UniProt P15659): recorded IC50 for assorted compounds

| COMPOUND | IC50 |
| --- | --- |
| CNC(=O)c1nn(CC2(c3ccc4cc(C)cnc4c3)CCCC2)cc(O)c1=O [Compound 890] | < 100 nM |
| CNC(=O)c1nn(CC2(n3cc(C)c4cccnc43)CCCC2)cc(OC(=O)C(C)(C)C)c1=O [Compound 679] | < 100 nM |
| COc1cccc(-n2cc(O)c(=O)c(C(=O)O)n2)c1 [Compound 5] | 100 to 1000 nM |
| CNC(=O)c1nn(-c2ccccc2-c2cc(C)ccc2OC(C)C)cc(O)c1=O [Compound 522] | 100 to 1000 nM |
| Cc1cn(C2(Cn3cc(O)c(=O)c(C(=O)NCC(C)C)n3)CCCC2)c2ncccc12 [Compound 821] | < 100 nM |
| CNC(=O)c1nn(CC2(Cn3cc(C)c4cccnc43)CCCC2)cc(O)c1=O [Compound 858] | 100 to 1000 nM |
| CN(Cc1ccccc1-n1cc(O)c(=O)c(C(=O)O)n1)C1CCCCC1 [Compound 19] | 100 to 1000 nM |
| O=C(NCc1ccc2[nH]ncc2c1)c1nn(CC2(c3cccc(C(F)(F)F)c3)CCCC2)cc(O)c1=O [Compound 669] | < 100 nM |

* * *

biological target: EN PA (Influenza A virus)

| COMPOUND | IC50 |
| --- | --- |
| O=C(NC1(C(F)(F)F)CCCC1)c1nn(CC2(c3cccc(C(F)(F)F)c3)CCCC2)cc(O)c1=O [Compound 503] | 0.1 to 1 µM |
| CNC(=O)c1nn(CC2(n3ccc4cc(F)ccc43)CCCC2)cc(O)c1=O [Compound 816] | < 0.1 µM |
| Cc1ccc(-c2ccccc2-n2cc(O)c(=O)c(C(=O)O)n2)cc1 [Compound 303] | 0.1 to 1 µM |
| CNC(=O)c1nn(CC2(n3ccc4cccnc43)CCCC2)cc(O)c1=O [Compound 609] | < 0.1 µM |
| CCCC(Cn1cc(O)c(=O)c(C(=O)NC)n1)n1cc(C)c2cccnc21 (centres unmarked) [Compound 791] | 0.1 to 1 µM |

* * *

target: EN PA (Influenza A virus)
Measured IC50 of individual entries
TEST_READOUT: IC50

| MOLECULE | RESULT |
| --- | --- |
| O=C(O)c1nn(-c2ccc3c(c2)OCCO3)cc(O)c1=O [Compound 32] | 100 to 1000 nM |
| NC(=O)c1nn(CC2(c3cccc(C(F)(F)F)c3)CCCC2)cc(O)c1=O [Compound 602] | 100 to 1000 nM |
| CC1CCN(c2ccccc2-n2cc(O)c(=O)c(C(=O)O)n2)CC1 [Compound 202] | 100 to 1000 nM |
| O=C(O)c1nn(-c2ccccc2CCO)cc(O)c1=O [Compound 29] | 100 to 1000 nM |
| Cc1cn(C2(Cn3cc(O)c(=O)c(C(=O)NC(C)(C)C)n3)CCCC2)c2ncccc12 [Compound 792] | < 100 nM |
| CNC(=O)c1nn(-c2ccccc2-c2ccccc2OC(F)(F)F)cc(O)c1=O [Compound 520] | ≥ 1000 nM |
| CC(C)COc1ccccc1-c1ccccc1-n1cc(O)c(=O)c(C(=O)O)n1 [Compound 325] | < 100 nM |
| CNC(=O)c1nn(CC2(c3ccc(C(F)(F)F)cc3)CCCC2)cc(O)c1=O [Compound 685] | < 100 nM |
| O=C(NCc1ccc(F)c(Cl)c1)c1nn(CC2(c3ccc(Cl)c(Cl)c3)CCCC2)cc(O)c1=O [Compound 784] | 100 to 1000 nM |
| CNC(=O)c1nn(CC2(n3cc(OC)c4cccnc43)CCCC2)cc(O)c1=O [Compound 892] | < 100 nM |
| O=C(O)c1nn(-c2ccccc2-c2ccccc2-c2ccccc2)cc(O)c1=O [Compound 35] | < 100 nM |
| CNC(=O)c1nn(CC2(c3cccc(Oc4ccccc4)c3)CCCC2)cc(O)c1=O [Compound 701] | < 100 nM |
